# System: OVCAR-8
# assay protocol: NCI tumour cell line growth inhibition, 48 h
Active and inactive are the calls of the source. Rule as the data show it: active = GI50 up to about 1.1 µM and inactive = higher.
Hi! Could you answer with just one of these? Yes for active, No for inactive

Input line: Recorded test outcome, item `CC[C@@]1(O)C(=O)OCc2c1cc1n(c2=O)Cc2c-1nc1ccccc1c2/C=N\NC(=O)C[n+]1ccccc1`
Output line: Yes

Input line: Could you check what this test reported for CC(C)(C)OC(=O)NC(CO)c1cccc(OCc2ccccc2)c1 (stereo not given) ?
Output line: No

Input line: Status in this test for CCOC(=O)CCC(C(=O)OCC)n1nnc2cc(Nc3c(C)[n+]([O-])c4cc(Cl)ccc4[n+]3[O-])ccc21 (stereo not given) ?
Output line: No

Input line: // outcome(item) with item = `CCN(CC)CCC(=O)c1ccc(Sc2ccc(F)cc2)cc1`
Output line: No

Input line: Look up the recorded call for `CC1=NN(C(=O)c2ccncc2)C(=O)C1` in this test.
Output line: No

###

# Tested on: HCT-116
# assay protocol: NCI tumour cell line growth inhibition, 48 h
Calls of active or inactive are those of the source. No stated cut-off is given here; in the data, active = GI50 up to about 1.1 µM and inactive = higher.
readout label: GI50

Input line: # query: GI50 of entry `C1=Nc2sc3c(c2C2=NCCN12)CCCC3`
Output line: 16.3 µM (inactive)

Input line: Looking for the measured GI50 of `[O-][n+]1ccccc1Sc1nc(Sc2cccc[n+]2[O-])nc(Sc2cccc[n+]2[O-])n1` , can you help?
Output line: 1.25 µM (inactive)

Input line: Find the recorded GI50 belonging to `O=C(NC/C(Cl)=C/Cl)Nc1c2ccccc2nc2ccccc12` and report it.
Output line: 24.3 µM (inactive)

Input line: State the recorded GI50 for this entry: CC(C)(C)OC(=O)NC(CO)c1cccc(OCc2ccccc2)c1 (stereo unspecified)
Output line: > 65.2 µM (inactive)

Input line: Dear colleague, I am looking for the recorded GI50 of the following compound: Nc1ncc(N)c(NCC2(CO)CC(CCc3ccccc3)C2)n1 (stereo unspecified)
Output line: 6.55 µM (inactive)

Input line: If you can, please state the reported GI50 value of CC12CC3c4ccccc4CN1C3(c1ccccc1)OC2=O (stereo unspecified) .
Output line: > 100 µM (inactive)

###

# Test system: MCF7
# assay protocol: NCI tumour cell line growth inhibition, 48 h
The source made the active and inactive calls. No stated cut-off is given here; in the data, active = GI50 up to about 1.1 µM and inactive = higher.
Your reply should match one of these outcome classes. 1 (yes) = active, 0 (no) = inactive

Input line: // outcome(item) with item = `O=C(C(Cl)=C(Nc1ccccc1)Nc1ccccc1)C(Cl)Cl`
Output line: 0 (no)

Input line: Tell me the recorded outcome of this test for O=C1N(c2ccccc2)C2(c3ccccc3)CC3CCCC13S2 (stereo unspecified) .
Output line: 0 (no)

Input line: Status in this test for `CCSc1nc(N)c2c(-c3ccc(OC)c(OC)c3)c3c(nc2n1)CCCC3` ?
Output line: 0 (no)

Input line: Short answer needed: outcome of this test for `Brc1ccccc2cc(-c3ccccc3)nc1-2` ?
Output line: 0 (no)

Input line: I'd appreciate the recorded outcome for `COc1cccc(/N=N/N2CCCC2)c1` from this test.
Output line: 0 (no)

Input line: Entry Cc1nc2c(cc1OCc1ccccc1)C(=O)C1=C(C2=O)C2OC(=O)CC2OC1(C)C (stereo unspecified) : call = ?
Output line: 1 (yes)

Input line: For `COc1cc(OC)cc(-n2c(N)c(-c3nc4ccccc4s3)c3ccc([N+](=O)[O-])cc3c2=O)c1` , which call appears in the assay record?
Output line: 0 (no)

Input line: Which result was noted for this compound in the test: `NCCCN(CCCN)CCc1cn(C(=O)c2ccccc2)cn1`
Output line: 0 (no)

Input line: Just curious, what result did CCCCCCCCCCCCCCC(O)C[N+](C)(CCO)CCO (stereo unspecified) get here?
Output line: 0 (no)

Input line: How did this test come out for OC(c1cccnc1)C(F)(F)c1nc2ccccc2o1 (stereo unspecified) ?
Output line: 0 (no)

Input line: Assay outcome for `O=[N+]([O-])/C(C(Cl)=C(Cl)Cl)=C(\Nc1cccc2cccnc12)Sc1ccccc1` : what was it?
Output line: 0 (no)

Data provenance: ChEMBL document CHEMBL1201862
